- System: RXF 393 renal
- Test Method Notes: NCI tumour cell line growth inhibition, 48 h
*1 amine or outer side, *2 acyl side, *3 side chain or, on linkers, in order; H or OH if unused. Where a SMILES comes first, the peptide text is derived from it. Bridges are numbered along the chain shown (N, C = ends). [ ]: non-standard residue; d: D form. The star is where a group is joined. Phe(3,5-F2) = N[C@@H](Cc1cc(F)cc(F)c1)C(=O)O; Pro(4R-Me) = C[C@H]1CN[C@H](C(=O)O)C1; aThr = C[C@H](O)[C@H](N)C(=O)O; Pip = O=C(O)[C@@H]1CCCCN1; X10 = Fc1cc(C2CC2)ccc1N*; CO = O=C([*:1])[*:2]
Outcome Measure: TGI (µM)

Compound	Qual	Observed Measurement
Nc1ccccc1S(=O)(=O)N(CC(=O)O)c1ccccc1	>	100
COC(=O)/C=C1\S/C(=N\NC(=O)c2cc3ccc2/C=C\c2ccc(cc2)/C=C\3)N(c2ccccc2)C1=O	=	3.86
Cc1cn2c(/C=N/N=C(N)N)c(-c3cccc([N+](=O)[O-])c3)nc2s1	=	2.5
Cc1ccc(N=NC(=Nc2ccccc2)c2ccc(N(CCC#N)CCC#N)cc2)cc1	=	80.1
Cc1ccccc1C(=O)N1CCc2c([nH]c3ccccc23)C1	=	43.1
CCCCC#C[I+]c1ccccc1	=	36.9
COC(=O)c1c(C)cccc1C1CN=NC12Cc1ccc(C)cc1C2=O (stereo not drawn)	>	100
Cc1ccc(NC(=O)Nc2ccc(-c3cccnc3)cc2N2CCC(CO)CC2)cc1	=	4.69
C[C@@H]1C[C@H]2C(=O)O[C@@H](C)[C@H](NC(=O)[C@H](Cc3cc(F)cc(F)c3)NC(=O)Nc3ccc(C4CC4)cc3F)C(=O)N3CCC[C@H]3C(=O)N3CCCC[C@H]3C(=O)N[C@@H](C)C(=O)N2C1 ({X10-CO}-[Phe(3,5-F2)][aThr]P[Pip]A[Pro(4R-Me)]; ester 2-C)	=	3.99
COc1ccc2c(c1)sc1nc(-c3ccccc3)c(-c3cccc4ccccc34)n12	=	1.29
OCCN(CCO)c1ncnc2c1ncn2Cc1ccc(CCl)cc1	=	37.1
COC([CH2][Hg][n]1cnc2c1c(=O)n(C)c(=O)n2C)CN1C(=O)c2ccccc2S1(=O)=O (stereo not drawn)	>	100
CN1CCc2cc(N)cc3c2C1Cc1ccc(O)c(O)c1-3 (stereo not drawn)	>	100
Fc1[nH]nc2ccc([C@@H]3Nc4ccc5[nH]ncc5c4[C@H]4C5CCC(C5)[C@@H]34)cc12 (stereo partly drawn)	=	7.8
COc1cc2c(c(OC)c1OC)-c1ccc(NNC(N)=S)c(=O)cc1[C@@H](NC(C)=O)CC2	=	0.747
Clc1ccccc1C(SCc1ccccc1)SCc1ccccc1	>	100
O=C1NC(=NCCc2cccc(F)c2)S/C1=C\c1ccc2ncccc2c1	>	25
COC(=O)C1SC(SC)=NC12c1ccccc1Nc1ccccc12 (stereo not drawn)	>	100
COc1cc2c(c3oc4c(O)cccc4c(=O)c13)CC(C(C)(O)CO)O2 (stereo not drawn)	=	79.8
COC(CCC[N+](C)(C)C)CC[N+](C)(C)C (stereo not drawn)	>	100
C1CN(c2nc3c(nnc4nc(N5CCOCC5)sc43)s2)CCO1	>	100
NC(=O)NCCCC(NC(=O)OCCCCn1ccc(=O)[nH]c1=O)C(=O)O (stereo not drawn)	>	100
COc1ccc(COCCOCc2nc(C#N)c(N)o2)cc1	>	100
N#CC1(C#N)N[C@@H](c2ccsc2)[C@H]2C(=O)N(c3ccccc3)C(=O)[C@H]21	>	100
CC1CCc2nc[nH]c(=O)c21 (stereo not drawn)	>	100
OCC1=CC(NC2CC(CO)C(O)C(O)C2O)C(O)C(O)C1O (stereo not drawn)	>	100
O=C(CCc1nc(=S)[nH][nH]1)Nc1cc(Cl)c(Cl)cc1Cl	>	100
Cn1cc(C2=C(c3c4n(c5ccccc35)CCCCC4)C(=O)NC2=O)c2ccccc21	=	7.23

###

- Test system: MDA-MB-435
- Test Method Notes: NCI tumour cell line growth inhibition, 48 h
Outcome Measure: TGI

> print(dat)
                                   molecule  outcome.measure  observed.measurement
1  O=C1/C(=C/c2ccccc2)N=C2Sc3c(nc[nH]c3=O)N12              TGI              > 100 µM
2      O=C(CCNC12CC3CC(CC(C3)C1)C2)c1ccccc1              TGI               65.9 µM
3  CC1CCC(n2c3cnccc3c3cnc(Nc4ccc5c(n4)CCN(C(=O)CO)C5)nc32)CC1 (centres undefined)              TGI              > 100 µM
4  NS(=O)(=O)OC[C@@H]1C[C@@H](n2ccc3c(NC4CCc5ccccc54)ncnc32)C[C@@H]1O (some centres undefined)              TGI              > 100 µM
5  O=[N+]([O-])c1ccc2c(c1)/C(=N/N=C1c3ccccc3Cc3ccccc31)c1cc([N+](=O)[O-])cc([N+](=O)[O-])c1-2              TGI               3.38 µM
6           Nc1nc(Cl)cc(NCC2(CO)CC(=O)C2)n1              TGI              > 100 µM
7  Cc1ccc(C(=O)O)cc1S(=O)(=O)Nn1cnc2ccc(S(=O)(=O)Nc3ccccc3C(=O)O)cc2c1=O              TGI              > 100 µM
8  Nc1c(C(=O)c2cccc(CCS(N)(=O)=O)c2)cnn1-c1ccc(F)cc1              TGI               > 25 µM
9  CCOC1Oc2ccccc2C(=O)/C1=C/Nc1ccc(C(C)=O)cc1 (centres undefined)              TGI               61.9 µM

###

- Tested on: SF-295 CNS
- Test Method Notes: NCI tumour cell line growth inhibition, 48 h; in the data active = GI50 below about 0.43 µM; inactive = the rest
*1 amine or outer side, *2 acyl side, *3 side chain or, on linkers, in order; H or OH if unused. Where a SMILES comes first, the peptide text is derived from it. Bridges are numbered along the chain shown (N, C = ends). [ ]: non-standard residue; d: D form. The star is where a group is joined. Phe(3,5-F2) = N[C@@H](Cc1cc(F)cc(F)c1)C(=O)O; Pro(4R-Me) = C[C@H]1CN[C@H](C(=O)O)C1; aThr = C[C@H](O)[C@H](N)C(=O)O; Pip = O=C(O)[C@@H]1CCCCN1; X10 = Fc1cc(C2CC2)ccc1N*; CO = O=C([*:1])[*:2]
Outcome codes: active, inactive

Compound	Assigned Category
C=CCO[C@H]1CO[C@H]2[C@@H]1OC[C@@H]2Oc1ccc(Nc2ccnc(Nc3ccc(O[C@H]4CO[C@H]5[C@@H]4OC[C@@H]5OCC=C)c(Cl)c3)n2)cc1Cl	inactive
Cc1ccc(NC(=O)Nc2ccc(-c3cccnc3)cc2N2CCC(CO)CC2)cc1	inactive
OCc1cc2ccccc2c2c3c(ccc12)OCO3	inactive
COC(=O)/C=C1\S/C(=N\NC(=O)c2cc3ccc2/C=C\c2ccc(cc2)/C=C\3)N(c2ccccc2)C1=O	inactive
Cn1cc(C2=C(c3c4n(c5ccccc35)CCCCC4)C(=O)NC2=O)c2ccccc21	inactive
C[C@@H]1C[C@H]2C(=O)O[C@@H](C)[C@H](NC(=O)[C@H](Cc3cc(F)cc(F)c3)NC(=O)Nc3ccc(C4CC4)cc3F)C(=O)N3CCC[C@H]3C(=O)N3CCCC[C@H]3C(=O)N[C@@H](C)C(=O)N2C1 ({X10-CO}-[Phe(3,5-F2)][aThr]P[Pip]A[Pro(4R-Me)]; ester 2-C)	active
Nc1nc(-n2c(-c3ccccc3)nc3c(Br)cc(Br)cc3c2=O)nnc1-c1cccc(Cl)c1Cl	inactive

###

Each item that follows carries a reported TGI.
- Tested on: K-562 leukemia
- Test Method Notes: NCI tumour cell line growth inhibition, 48 h
Outcome Measure: TGI

> print(dat)
                                    compound  observed.measurement
 1  O=C1CC(NC(=O)C(F)(F)F)c2c(Br)sc(N3CCNCC3)c21 (stereo not given)              > 100 µM
 2  N#CC1(C#N)N[C@@H](c2ccsc2)[C@H]2C(=O)N(c3ccccc3)C(=O)[C@H]21              > 100 µM
 3    CC(C)CCS(=O)(=O)OCCCCOS(=O)(=O)CCC(C)C              > 100 µM
 4      O=C(CCNC12CC3CC(CC(C3)C1)C2)c1ccccc1               36.5 µM
 5  COc1ccc2cc(NC(=O)N/N=C\c3ccc([N+](=O)[O-])cc3)ccc2c1              > 100 µM
 6  COC(=O)c1ccccc1NC(=O)C(=O)Cc1nc2c3c(ccc2[nH]c1=O)C(=O)c1ccccc1C3=O              > 100 µM
 7  CC(=O)[CH-]C(=O)c1ccccc1.CC(=O)[CH-]C(=O)c1ccccc1.CN(C)c1ccc([O-])cc1.CN(C)c1ccc([O-])cc1.Cl.[Ti+4]             > 31.6 µM
 8       NS(=O)(=O)c1ccc2c(c1)OCCOCCOCCOCCO2              > 100 µM
 9            Nc1nc(SCCc2ccccc2)c2[nH]cnc2n1              > 100 µM
10  CC1(C)C(=O)/C=C\C(=O)C(C)(C)C2=CC=C(O2)C(C)(C)C(=O)/C=C\C(=O)C(C)(C)C2=CC=C1O2              > 100 µM
